Collected DC50 values appear next to each entry.
Biological target: BCL6 (Homo sapiens, UniProt P41182)
Construct: endogenous in cells; host or cells: T47D breast cancer epithelial cells
Experiment: Immunofluorescence protocol for high content imaging of BCL6 (degradation) in T47D cells, 3 days compound treatment
Format: cell-based
Conditions: read-out: Mean DC50 (nM)* category

The cases that follow already have their DC50 on record.
{"MOLECULE": "CNC(=O)COc1cc2cc(Nc3nc(N4CCC(O[C@H]5C[C@H](N6CCC(c7cnc8c(c7)CN(C7CCC(=O)NC7=O)C8=O)CC6)C5)CC4)ncc3Cl)ccc2n(C(C)C)c1=O (stereo partly shown) [Compound 216]", "DC50": "< 10 nM"}
{"MOLECULE": "CNC(=O)COc1cc2cc(Nc3nc(N4CCC(OC5CN([C@H]6CC[C@H](c7ccc8c(c7)C(=O)N(C7CCC(=O)NC7=O)C8=O)CC6)C5)CC4)ncc3Cl)ccc2n(C(C)C)c1=O (stereo partly shown) [Compound 341]", "DC50": "10 to 50 nM"}
{"MOLECULE": "CNC(=O)COc1cc2cc(Nc3nc(N4CCC(CN5CCC6(CC5)CN(c5ccc7c(c5OC)CN(C5CCC(=O)NC5=O)C7=O)C6(C)C)CC4)ncc3Cl)ccc2n(C(C)C)c1=O (stereo not shown) [Compound 340]", "DC50": "10 to 50 nM"}

Lookup: I have this molecule here, CNC(=O)COc1cc2cc(Nc3nc(N4CCC(CN5CCC6(CC5)CC5(CN(c7ccc8c(c7F)CN(C7CCC(=O)NC7=O)C8=O)C5)C6)CC4)ncc3Cl)ccc2n(C(C)C)c1=O (stereo not shown) [Compound 427] , and I need its recorded DC50.
Found: < 10 nM

Lookup: Given CNC(=O)COc1cc2cc(Nc3nc(N4CCC(OC5CCC6(CC5)CN(c5c(F)ccc7c5CN(C5CCC(=O)NC5=O)C7=O)C6)CC4)ncc3Cl)ccc2n(C(C)C)c1=O (stereo not shown) [Compound 298] , state its recorded DC50.
Found: < 10 nM

Lookup: What does the data say about its DC50? Entry: CNC(=O)COc1cc2cc(Nc3nc(N4CCC(O[C@H]5C[C@H](N6CC7(CCN7c7ccc8c(c7)CN(C7CCC(=O)NC7=O)C8=O)C6)C5)CC4)ncc3Cl)ccc2n(C(C)C)c1=O (stereo partly shown) [Compound 309]
Found: < 10 nM

---

Target: BCL6 (Homo sapiens, UniProt P41182)
Construct: endogenous in cells; host or cells: T47D breast cancer epithelial cells
Test: Immunofluorescence protocol for high content imaging of BCL6 (degradation) in T47D cells, 3 days compound treatment
Format: cell-based
Details: T47D, read-out: Mean Dmax (%)** category
In this section, each of the molecules is paired with its reported Dmax.

In the examples that follow, each entry is paired with its recorded Dmax.
{"MOLECULE": "CNC(=O)COc1cc2cc(Nc3nc(N4CCN(C[C@H]5C[C@H](N6CCN(c7ccc8c(c7)CN(C7CCC(=O)NC7=O)C8=O)CC6)C5)CC4)ncc3Cl)ccc2n(C(C)C)c1=O (stereo partly shown)", "EXPERIMENTAL VALUE": "≥ 70%"}
{"MOLECULE": "CNC(=O)COc1cc2cc(Nc3nc(N4CCC(CN5CCC6(CC5)CC5(CN(c7cccc8c7C(=O)N(C7CCC(=O)NC7=O)C8=O)C5)C6)CC4)ncc3Cl)ccc2n(C(C)C)c1=O (stereo not shown)", "EXPERIMENTAL VALUE": "≥ 70%"}
{"MOLECULE": "CNC(=O)COc1cc2cc(Nc3nc(N4CCC(CN5CCC6(CC5)CN(c5cccc7c5C(=O)N(C5CCC(=O)NC5=O)C7=O)C6(C)C)CC4)ncc3Cl)ccc2n(C(C)C)c1=O (stereo not shown)", "EXPERIMENTAL VALUE": "50 to 70%"}
{"MOLECULE": "CNC(=O)COc1cc2cc(Nc3nc(N4CCC(O[C@H]5C[C@H](N6CC[C@@H](c7ccc8c(c7F)CN([C@@H]7CCC(=O)NC7=O)C8=O)C(C)(C)C6)C5)CC4)ncc3Cl)ccc2n(C(C)C)c1=O", "EXPERIMENTAL VALUE": "≥ 70%"}
{"MOLECULE": "CNC(=O)COc1cc2cc(Nc3nc(N4CCC(N5CCC56CN(C5CCN(c7ccc8c(c7)C(=O)N(C7CCC(=O)NC7=O)C8=O)CC5)C6)CC4)ncc3Cl)ccc2n(C(C)C)c1=O (stereo not shown)", "EXPERIMENTAL VALUE": "50 to 70%"}
{"MOLECULE": "CNC(=O)COc1cc2cc(Nc3nc(N4CCC(O[C@H]5C[C@H](N6CCC7(CCCN(c8ccc9c(c8)C(=O)N(C8CCC(=O)NC8=O)C9=O)C7)C6)C5)CC4)ncc3Cl)ccc2n(C(C)C)c1=O (stereo partly shown)", "EXPERIMENTAL VALUE": "50 to 70%"}
{"MOLECULE": "CNC(=O)COc1cc2cc(Nc3nc(N4CCC(N5CCC56CN(C5CCN(c7ccc8c(c7)C(=O)N(C7CCC(=O)NC7=O)C8=O)C5)C6)CC4)ncc3Cl)ccc2n(C(C)C)c1=O (stereo not shown)", "EXPERIMENTAL VALUE": "50 to 70%"}
{"MOLECULE": "CNC(=O)COc1cc2cc(Nc3nc(N4CCC(CN5CCC6(CN(c7cccc8c7CN(C7CCC(=O)NC7=O)C8=O)C6)C(F)C5)CC4)ncc3Cl)ccc2n(C(C)C)c1=O (stereo not shown)", "EXPERIMENTAL VALUE": "≥ 70%"}

Lookup: Reported Dmax for BCL6 (Homo sapiens, UniProt P41182), given CNC(=O)COc1cc2cc(Nc3nc(N4CCC(O[C@H]5C[C@H](N6CCN(c7ccc8c(c7)C(=O)N(C7CCC(=O)NC7=O)C8=O)[C@H](C)C6)C5)CC4)ncc3Cl)ccc2n(C(C)C)c1=O (stereo partly shown) ?
Found: 50 to 70%

Lookup: Form: Entry = CNC(=O)COc1cc2cc(Nc3nc(N4CCC(O[C@H]5C[C@H](N6CCN(c7ccc8c(c7C)CN(C7CCC(=O)NC7=O)C8=O)CC6)C5)CC4)ncc3Cl)ccc2n(C(C)C)c1=O (stereo partly shown) | System = BCL6 (Homo sapiens, UniProt P41182) | Dmax = ____
Found: ≥ 70%

---

Target: BCL6 (Homo sapiens, UniProt P41182)
Construct: endogenous in cells; host or cells: T47D breast cancer epithelial cells
Test: Immunofluorescence protocol for high content imaging of BCL6 (degradation) in T47D cells, 3 days compound treatment
Assay type: cell-based
Details: T47D cells, 3 days compound treatment, read-out: Mean DC50 (nM)* category
ASSAY METRIC: DC50

Worked cases, DC50 given:
{"COMPOUND": "CNC(=O)COc1cc2cc(Nc3nc(N4CCC(O[C@H]5C[C@H](N6CCN(c7ccc8c(n7)C(C)N(C7CCC(=O)NC7=O)C8=O)[C@@H](C)C6)C5)CC4)ncc3Cl)ccc2n(C(C)C)c1=O (stereo partly shown)", "ASSAYED SYSTEM": "BCL6 (Homo sapiens, UniProt P41182)", "DC50": "< 10 nM"}
{"COMPOUND": "CNC(=O)COc1cc2c(F)c(Nc3nc(N4CCC(O[C@H]5C[C@H](N6CCN(c7ccc8c(c7C)C(=O)N(C7CCC(=O)NC7=O)C8=O)CC6)C5)CC4)ncc3Cl)ccc2n(C(C)C)c1=O (stereo partly shown)", "ASSAYED SYSTEM": "BCL6 (Homo sapiens, UniProt P41182)", "DC50": "< 10 nM"}
{"COMPOUND": "CNC(=O)COc1cc2cc(Nc3nc(N4CCC(CN5CC[C@]6(CCN(c7ccc8c(c7)CN([C@@H]7CCC(=O)NC7=O)C8=O)C6)C5)CC4)ncc3Cl)ccc2n(C(C)C)c1=O", "ASSAYED SYSTEM": "BCL6 (Homo sapiens, UniProt P41182)", "DC50": "< 10 nM"}
{"COMPOUND": "CC(C)n1c(=O)c(OCC(=O)N(C)C)cc2cc(Nc3nc(N4CCC(CN5CCC6(CC5)CN(c5ccc7c(c5)C(=O)N(C5CCC(=O)NC5=O)C7=O)C6)CC4)ncc3Cl)ccc21 (stereo not shown)", "ASSAYED SYSTEM": "BCL6 (Homo sapiens, UniProt P41182)", "DC50": "≥ 100 nM"}
{"COMPOUND": "CNC(=O)COc1cc2cc(Nc3nc(N4CCC(C(C)(C)N5CC6(CCN(c7cccc8c7CN(C7CCC(=O)NC7=O)C8=O)CC6)C5)CC4)ncc3Cl)ccc2n(C(C)C)c1=O (stereo not shown)", "ASSAYED SYSTEM": "BCL6 (Homo sapiens, UniProt P41182)", "DC50": "< 10 nM"}

Lookup: # lookup: DC50 of CNC(=O)COc1cc2cc(Nc3nc(N4CCC(O[C@H]5C[C@H](N6CCN(c7ccc8c(c7F)CN(C7CCC(=O)NC7=O)C8=O)C[C@H]6C)C5)CC4)ncc3Cl)ccc2n(C(C)C)c1=O (stereo partly shown)
Found: < 10 nM

Lookup: Return reported DC50; argument: CNC(=O)COc1cc2cc(Nc3nc(N4CCC(O[C@H]5C[C@@H](N6CCC(c7ccc8c(c7)C(=O)N(C7CCC(=O)NC7=O)C8=O)CC6)C5)CC4)ncc3Cl)ccc2n(C(C)C)c1=O (stereo partly shown)
Found: 50 to 100 nM
